Cited source: patent US5192784A

Assay: physchem
Settings: water, pH 6.5, water, solubility in water
measured-quantity: solubility at 24 h (mg/mL)
Field format: number, assumed mg/mL, no unit text.

// recorded solubility at 24 h for O=C(Cn1ccnc1[N+](=O)[O-])NCCO : 68.1

###

Experiment: physchem
Details: initial dissolved concentration (before crystals appeared)
measured-quantity: solubility

// recorded solubility for O=C(Cn1ccnc1[N+](=O)[O-])NCCO : > 150 mg/mL

###

Assay: Equilibrium solubility of etanidazole in 0.05M acetate or citrate buffers at pH 4.0 with additives
Type: physicochemical
Conditions: 0.05m acetate buffer, aqueous buffer; acetate 0.05M pH 4.0, no additive, mean ± SD; read-out: Solubility at 4° C.
measured-quantity: solubility (mg/mL)
Field format: number, assumed mg/mL, no unit text.

// recorded solubility for O=C(Cn1ccnc1[N+](=O)[O-])NCCO : 83.4

###

Experiment: Equilibrium solubility of etanidazole in 0.05M acetate or citrate buffers at pH 4.0 with additives
Format: physicochemical
Details: 0.05m acetate buffer; acetate 0.05M pH 4.0, 0.13% Ethylenediamine, mean ± SD; read-out: Solubility at 4° C.
measured-quantity: solubility (mg/mL)
Field format: number, assumed mg/mL, no unit text.

// recorded solubility for O=C(Cn1ccnc1[N+](=O)[O-])NCCO [Etanidazole] : 54.8

###

Experiment: Equilibrium solubility of etanidazole in 0.05M acetate or citrate buffers at pH 4.0 with additives
Assay type: physicochemical
Settings: 0.05m citrate buffer; citrate 0.05M pH 4.0, 0.13% Ethylenediamine, mean ± SD; read-out: Solubility at 4° C.
measured-quantity: solubility (mg/mL)
Field format: number, assumed mg/mL, no unit text.

// recorded solubility for O=C(Cn1ccnc1[N+](=O)[O-])NCCO : 61.5

###

Test: Equilibrium solubility of etanidazole in 0.05M acetate or citrate buffers at pH 4.0 with additives
Format: physicochemical
Conditions: 0.05m citrate buffer; citrate 0.05M pH 4.0, 0.065% Imidazole, mean ± SD; read-out: Solubility at 4° C.
measured-quantity: solubility (mg/mL)
Field format: number, assumed mg/mL, no unit text.

// recorded solubility for O=C(Cn1ccnc1[N+](=O)[O-])NCCO [Etanidazole] : 95.4

###

Test: physchem
Details: solubility
measured-quantity: solubility at 24 h

// recorded solubility at 24 h for O=C(Cn1ccnc1[N+](=O)[O-])NCCO : 59.2 to 71.7 mg/mL
